// data source = ChEMBL document CHEMBL4024771

- Protocol: Clearance in rat at 2 mg/kg, iv
- Format: ADME, organism-based
- Details: in vivo
Quantity: clearance

Record request: clearance value, item COc1cc(C)[nH]c(=O)c1CN1CCc2c(Cl)cc([C@H](OC)C3COC3)c(Cl)c2C1=O 70 mL/min/kg

###

A collection of compounds and their measured log10 microsomal CLint at 1 µM
- Protocol: Intrinsic clearance in human liver microsomes assessed per mg protein at 1 uM preincubated for 10 mins followed by NADPH addition measured after 45 mins by LC-MS/MS analysis
- Type: ADME, microsome
- Details: liver microsomes, read-out: CLH
Log10 applied to microsomal CLint at 1 µM; unit prior to transform: µL/min/mg.

Before answering, review these 5 worked examples.
COc1cc(C)[nH]c(=O)c1CN1CCc2c(Cl)cc(C(OC)C3(C)COC3)c(Cl)c2C1=O (stereo in doubt; (-)-24b) : 2.23
Cc1cc(C)c(CN2CCc3c(Cl)cc([C@H](CO)[C@H]4CCOC4)c(Cl)c3C2=O)c(=O)[nH]1 : 1.33
Cc1cc(C)c(CN2CCc3c(Cl)cc([C@H](CO)[C@H]4CCCO4)c(Cl)c3C2=O)c(=O)[nH]1 : 1.71
Cc1cc(C)c(CN2CCc3c(Cl)cc(C(CO)c4ccon4)c(Cl)c3C2=O)c(=O)[nH]1 (stereo in doubt; (-)-21b) : 1.36
COc1cc(C)[nH]c(=O)c1CN1CCc2c(Cl)cc(-c3c(C)noc3C)c(Cl)c2C1=O : 1.85

// query log10 microsomal CLint at 1 µM value for entry Cc1cc(C)c(CN2CCc3c(Cl)cc([C@H](CO)[C@@H]4CCCO4)c(Cl)c3C2=O)c(=O)[nH]1 1.58

What do you have for Cc1cc(C)c(CN2CCc3c(Cl)cc([C@@H](C)CO)c(Cl)c3C2=O)c(=O)[nH]1 ? 1.09

###

Below, each entry is listed alongside its reported Papp at […], 2 µM.
- Protocol: Passive permeability in MDCK cells at 2 uM after 90 mins by LC-MS/MS analysis
- Format: ADME, cell-based, Canis lupus familiaris
- Details: dog, MDCK; read-out: permeability
Please reply with the bare figure in ×10⁻⁶ cm/s and do not write the unit itself.

The cases that follow already have their Papp at […], 2 µM on record.
COC(c1cc(Cl)c2c(c1Cl)C(=O)N(Cc1c(C)cc(C)[nH]c1=O)CC2)C1CCN(C(C)=O)CC1 (single isomer, unassigned; (+)) : 11.5
Cc1cc(C)c(CN2CCc3c(Cl)cc([C@H](C)CO)c(Cl)c3C2=O)c(=O)[nH]1 : 12.4
COC(c1cc(Cl)c2c(c1Cl)C(=O)N(Cc1c(C)cc(C)[nH]c1=O)CC2)C1CS(=O)(=O)C1 (stereo in doubt; (+)-19a) : 5.3
Cc1cc(C)c(CN2CCc3c(Cl)cc([C@@H](CO)[C@@H]4CCCO4)c(Cl)c3C2=O)c(=O)[nH]1 : 4.3
Cc1cc(C)c(CN2CCc3c(Cl)cc(-c4c(C)noc4C)c(Cl)c3C2=O)c(=O)[nH]1 : 15.7

Form field: reported Papp at […], 2 µM of COc1cc(C)[nH]c(=O)c1CN1CCc2c(Cl)cc(C(OC)C3(C)COC3)c(Cl)c2C1=O (single isomer, unassigned; (+)) 5.7

Now this one: CCOC(c1cc(Cl)c2c(c1Cl)C(=O)N(Cc1c(C)cc(C)[nH]c1=O)CC2)C1CS(=O)(=O)C1 (single isomer, unassigned; (+)) 12

Note, next up: COc1cc(C)[nH]c(=O)c1CN1CCc2c(Cl)cc(C(OC)C3CCN(C(=O)CO)CC3)c(Cl)c2C1=O (single isomer, unassigned; (+)) 1.5

What do we get for CCC(OC)c1cc(Cl)c2c(c1Cl)C(=O)N(Cc1c(C)cc(C)[nH]c1=O)CC2 (single isomer, unassigned; (+)) ? 18.2

Follow-up entry: COc1cc(C)[nH]c(=O)c1CN1CCc2c(Cl)cc([C@@H](OC)C3COC3)c(Cl)c2C1=O 6.8

Check COc1cc(C)[nH]c(=O)c1CN1CCc2c(Cl)cc(C(OC)C3CCOC3)c(Cl)c2C1=O (single isomer, unassigned; (+)) too. 7.2

Same read-out for COC(C)c1cc(Cl)c2c(c1Cl)C(=O)N(Cc1c(C)cc(C)[nH]c1=O)CC2 (stereo in doubt; (-)9a) ? 26

Input Cc1cc(C)c(CN2CCc3c(Cl)cc([C@H](CO)[C@@H]4CCCO4)c(Cl)c3C2=O)c(=O)[nH]1 14.6

Now consider COC(c1cc(Cl)c2c(c1Cl)C(=O)N(Cc1c(C)cc(C)[nH]c1=O)CC2)C1CCOCC1 (single isomer, unassigned; (+)) and answer again. 13.3

###

- Target system: UniProt:Q15910
- Sequence (Q15910 whole entry): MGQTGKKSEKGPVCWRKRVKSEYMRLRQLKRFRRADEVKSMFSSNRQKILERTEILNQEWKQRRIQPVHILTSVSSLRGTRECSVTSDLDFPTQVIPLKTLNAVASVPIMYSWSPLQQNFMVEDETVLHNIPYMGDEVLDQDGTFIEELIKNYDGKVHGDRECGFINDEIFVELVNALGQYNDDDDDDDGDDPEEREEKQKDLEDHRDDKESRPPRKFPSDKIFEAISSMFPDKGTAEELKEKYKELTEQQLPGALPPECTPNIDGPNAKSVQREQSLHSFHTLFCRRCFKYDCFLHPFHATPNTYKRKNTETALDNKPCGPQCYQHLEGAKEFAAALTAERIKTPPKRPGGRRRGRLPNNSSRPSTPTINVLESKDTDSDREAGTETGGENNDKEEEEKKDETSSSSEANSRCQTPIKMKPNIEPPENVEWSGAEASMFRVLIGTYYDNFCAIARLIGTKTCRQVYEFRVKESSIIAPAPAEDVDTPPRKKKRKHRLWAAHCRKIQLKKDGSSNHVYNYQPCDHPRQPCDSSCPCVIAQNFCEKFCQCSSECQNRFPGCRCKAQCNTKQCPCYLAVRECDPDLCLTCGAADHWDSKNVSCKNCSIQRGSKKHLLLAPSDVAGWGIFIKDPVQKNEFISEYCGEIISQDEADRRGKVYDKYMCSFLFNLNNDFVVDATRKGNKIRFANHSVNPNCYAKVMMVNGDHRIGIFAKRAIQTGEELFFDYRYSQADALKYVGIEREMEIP
- Protocol: Inhibition of EZH2 in human KARPAS422 cells assessed as reduction in H3K27me3 level after 72 hrs by ELISA
pIC50: −log10 of the molar value.
Classification field: y = pIC50 at or over 6; n = pIC50 under 6.

See these solved cases before continuing.
COc1cc(C)[nH]c(=O)c1CN1CCc2c(Cl)cc([C@@H](OC)C3COC3)c(Cl)c2C1=O : y
COC(c1cc(Cl)c2c(c1Cl)C(=O)N(Cc1c(C)cc(C)[nH]c1=O)CC2)C1CCN(C)CC1 (single isomer, unassigned; (+)) : y
CCC(OC)c1cc(Cl)c2c(c1Cl)C(=O)N(Cc1c(C)cc(C)[nH]c1=O)CC2 (single isomer, unassigned; (+)) : y

Determine whether measured pIC50 meets or exceeds 6 for Cc1cc(C)c(CN2CCc3c(Cl)cc([C@@H](CO)[C@@H]4CCCO4)c(Cl)c3C2=O)c(=O)[nH]1 n

###

Measured solubility kinetic by item
- Protocol: Kinetic solubility of the compound
- Type: physicochemical
- Details: read-out: Kinetic_solubility
Enter your answer as a number in µM; do not include the unit.

See these solved cases before continuing.
COc1cc(C)[nH]c(=O)c1CN1CCc2c(Cl)cc([C@H](OC)C3COC3)c(Cl)c2C1=O : 538
Cc1cc(C)c(CN2CCc3c(Cl)cc(C(CO)c4ccon4)c(Cl)c3C2=O)c(=O)[nH]1 (single isomer, unassigned; (+)) : 596
COc1cc(C)[nH]c(=O)c1CN1CCc2c(Cl)cc([C@@H](OC)C3COC3)c(Cl)c2C1=O : 543
Cc1cc(C)c(CN2CCc3c(Cl)cc([C@@H](CO)[C@H]4CCCO4)c(Cl)c3C2=O)c(=O)[nH]1 : 576
CCC(O)c1cc(Cl)c2c(c1Cl)C(=O)N(Cc1c(C)cc(C)[nH]c1=O)CC2 (stereo in doubt; (-)-3b) : 56

Fill in: solubility kinetic of COc1cc(C)[nH]c(=O)c1CN1CCc2c(Cl)cc(C(OC)C3CCOC3)c(Cl)c2C1=O (single isomer, unassigned; (+)) is ___ 433

Please answer likewise for COC(c1cc(Cl)c2c(c1Cl)C(=O)N(Cc1c(C)cc(C)[nH]c1=O)CC2)C1CS(=O)(=O)C1 (stereo in doubt; (+)-19a) 161

Moving on to the next compound: COc1cc(C)[nH]c(=O)c1CN1CCc2c(Cl)cc(C(OC)C3CCN(C(=O)CO)CC3)c(Cl)c2C1=O (single isomer, unassigned; (+)) 480

Another: Cc1cc(C)c(CN2CCc3c(Cl)cc([C@H](CO)[C@H]4CCOC4)c(Cl)c3C2=O)c(=O)[nH]1 570

Now consider COC(C)c1cc(Cl)c2c(c1Cl)C(=O)N(Cc1c(C)cc(C)[nH]c1=O)CC2 (single isomer, unassigned; (+)) and answer again. 49

Here is the next compound: COc1cc(C)[nH]c(=O)c1CN1CCc2c(Cl)cc(-c3c(C)noc3C)c(Cl)c2C1=O 384

Next record, please: COc1cc(C)[nH]c(=O)c1CN1CCc2c(Cl)cc([C@H](O)C3COC3)c(Cl)c2C1=O 234

Now give it for COc1cc(C)[nH]c(=O)c1CN1CCc2c(Cl)cc([C@@H](O)C3COC3)c(Cl)c2C1=O too. 582

Then what about the compound COC(c1cc(Cl)c2c(c1Cl)C(=O)N(Cc1c(C)cc(C)[nH]c1=O)CC2)C1CCN(C)CC1 (single isomer, unassigned; (+)) ? 639

Lookup CCOC(c1cc(Cl)c2c(c1Cl)C(=O)N(Cc1c(C)cc(C)[nH]c1=O)CC2)C1CS(=O)(=O)C1 (single isomer, unassigned; (+)) 453

// repeat for Cc1cc(C)c(CN2CCc3c(Cl)cc([C@H](CO)[C@@H]4CCCO4)c(Cl)c3C2=O)c(=O)[nH]1 and report 400

Now consider COC(c1cc(Cl)c2c(c1Cl)C(=O)N(Cc1c(C)cc(C)[nH]c1=O)CC2)C1CCN(C2COC2)CC1 (single isomer, unassigned; (+)) and answer again. 523

Would you kindly repeat that for CCC(CO)c1cc(Cl)c2c(c1Cl)C(=O)N(Cc1c(C)cc(C)[nH]c1=O)CC2 (stereo in doubt; (-)-5b) ? 443
